- measured-on: rat recombinant ETB receptor (CHO cells) (Rattus norvegicus, UniProt P21451)
- Sequence (P21451 27-442): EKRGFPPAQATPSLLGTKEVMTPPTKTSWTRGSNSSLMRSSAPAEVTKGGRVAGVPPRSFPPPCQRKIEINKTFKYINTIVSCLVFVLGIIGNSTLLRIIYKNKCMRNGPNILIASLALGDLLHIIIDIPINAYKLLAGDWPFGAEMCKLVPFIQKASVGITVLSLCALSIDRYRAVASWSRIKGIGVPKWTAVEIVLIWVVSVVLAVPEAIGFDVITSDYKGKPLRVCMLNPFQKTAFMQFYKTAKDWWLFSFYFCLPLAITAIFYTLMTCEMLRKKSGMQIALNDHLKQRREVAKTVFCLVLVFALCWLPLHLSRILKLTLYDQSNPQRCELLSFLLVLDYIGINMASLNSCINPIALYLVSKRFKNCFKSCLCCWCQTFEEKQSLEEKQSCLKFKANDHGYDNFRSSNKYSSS
- protocol-details: Inhibition of ET-1 stimulated arachidonic acid release (AAR-B)
- test-conditions: ET-1 0.3 nM
Peptide text beside a SMILES is read from it.
List of pIC50 values.
The quantity pIC50 is defined as the negative base-10 logarithm of the molar concentration.

Example entries and their recorded answers appear below.
molecule | quantity-kind | quantitative-readout
CC[C@H](C)[C@H](NC(=O)[C@H](CC(=O)O)NC(=O)[C@H](CC(C)C)NC(=O)[C@H](N)C1c2ccccc2CCc2ccccc21)C(=O)N[C@H](C(=O)N[C@@H](Cc1c[nH]c2ccccc12)C(=O)O)[C@@H](C)CC [Example 2, D-Bhg-Leu-Asp-Ile-Ile-Trp] (HELM PEPTIDE1{[N[C@@H](C(=O)[*:2])C1c2ccccc2CCc2ccccc21].L.D.I.I.W}$$$$V2.0) | pIC50 | 5.02
CC[C@H](C)[C@H](NC(=O)[C@H](CC(=O)O)NC(=O)[C@H](CC(C)C)NC(=O)[C@H](NC(C)=O)C1c2ccccc2CCc2ccccc21)C(=O)N[C@H](C(=O)N[C@@H](Cc1c[nH]c2ccccc12)C(=O)O)[C@@H](C)CC [Example 1, Ac-D-Bhg-Leu-Asp-Ile-Ile-Trp] (HELM PEPTIDE1{[ac].[O=C([C@H](N[*:1])C1c2ccccc2CCc2ccccc21)[*:2]].L.D.I.I.W}$$$$V2.0) | pIC50 | 7.70

Consider the additional molecule presented here.
Request: Returns the measured pIC50 for the input molecule. Input: CC[C@H](C)[C@H](NC(=O)[C@H](CC(=O)O)NC(=O)[C@H](CC(C)C)NC(=O)[C@H](N)C1c2ccccc2Sc2ccccc21)C(=O)N[C@H](C(=O)N[C@@H](Cc1c[nH]c2ccccc12)C(=O)O)[C@@H](C)CC [Example 13, D-Txg-Leu-Asp-Ile-Ile-Trp] (HELM PEPTIDE1{[N[C@@H](C(=O)[*:2])C1c2ccccc2Sc2ccccc21].L.D.I.I.W}$$$$V2.0)
Result: 5.62

Origin of values: patent US5550110A
